Test: Metabolic stability in mouse hepatocytes
Format: in vitro ADME
Settings: read-out: Mouse MS Stability t1/2
Reported Metric: half-life

// solved cases for half-life follow
Cc1nc(N2C[C@@H](CC(=O)Nc3cccc(-c4ccccc4)c3)C[C@H]2C(=O)O)c2oc3ccccc3c2n1    > 5 h
Cc1nc(N2C[C@@H](CC(=O)Nc3ccc4[nH]ncc4c3)C[C@H]2C(=O)O)c2oc3ccccc3c2n1    > 5 h
Cc1nc(N2C[C@@H](CC(=O)Nc3ccc(Cl)c(Cl)c3)C[C@H]2C(=O)O)c2oc3ccccc3c2n1    > 5 h

Input: Any idea what its half-life is? The molecule is "Cc1nc(N2C[C@@H](CC(=O)Nc3ccc(-c4cccnc4)cc3)C[C@H]2C(=O)O)c2oc3ccccc3c2n1"
Output: 3.33 to 5 h

Input: Any idea what its half-life is? The molecule is "Cc1nc(N2C[C@@H](CC(=O)Nc3ccc(-c4ccc5[nH]ncc5c4)cc3)C[C@H]2C(=O)O)c2oc3ccccc3c2n1"
Output: > 5 h

Input: Any idea what its half-life is? The molecule is "Cc1nc(N2C[C@@H](CC(=O)Nc3ccc(Cc4ccccc4)cc3)C[C@H]2C(=O)O)c2oc3ccccc3c2n1"
Output: 1.67 to 3.33 h

Input: Any idea what its half-life is? The molecule is "Cc1nc(N2C[C@@H](CC(=O)Nc3ccc4ccccc4c3)C[C@H]2C(=O)O)c2oc3ccccc3c2n1"
Output: > 5 h
